Tested on: EKVX NSCLC
Test: NCI tumour cell line growth inhibition, 48 h
Catalogue of molecules with associated GI50
measurement_label: GI50

| molecule | system_name | result |
| --- | --- | --- |
| COc1ccc(COc2cc3oc(=O)c4cc(C(C)O)ccc4c3cc2OC)cc1 (stereo not drawn) | EKVX NSCLC | 19700 nM |
| C=CCN(CC=C)C(=O)[C@H](CC)[C@@H]1CC[C@@H](C)[C@@H]([C@H](C)[C@@H](O)[C@@H](C)C(=O)[C@H](CC)C2O[C@]3(C=C[C@@H](O)[C@]4(CC[C@@](C)([C@H]5CC[C@](O)(CC)[C@H](C)O5)O4)O3)[C@H](C)C[C@@H]2C)O1 (stereo partly drawn) | EKVX NSCLC | 2330 nM |
| COc1cc(C(=O)/C=C/c2c(C(F)(F)F)nc3ccccn23)cc(OC)c1OC | EKVX NSCLC | 2370 nM |

====

Test system: MALME-3M melanoma
Test: NCI tumour cell line growth inhibition, 48 h

| compound | TGI |
| --- | --- |
| c1cncc(CSc2ncnc3nc[nH]c23)c1 | > 100 µM |
| O=C1/C(=C/c2ccccc2O)N=C(c2ccccc2)N1c1cc(C(F)(F)F)ccc1Cl | > 100 µM |
| O=C(c1c(O)cc(O)cc1O)C1Cc2ccccc21 (centres undefined) | > 100 µM |
| CCn1ccnc1C(=O)/C=C/c1ccc(CC(=O)Nc2ccc(F)cc2)cc1 | > 16.7 µM |
| Cc1ccc(S(=O)(=O)NC(=O)Nc2cc(Cl)c(S(N)(=O)=O)cc2S(N)(=O)=O)cc1 | > 100 µM |
| CC(=O)CC(=O)CCC(=O)Nc1cccc(C(F)(F)F)c1 | > 100 µM |
| O=c1cc(CNC2CC3CCC2C3)[nH]c(=O)[nH]1 (centres undefined) | > 100 µM |
| C=CCNC(=O)CN(CC(=O)OC)C1CCCCC1N(CC(=O)OC)CC(=O)OC (centres undefined) | > 100 µM |
| Nc1nc2ccccc2c2c1S(=O)(=O)c1ccc(Cl)cc1C2=O | 4.25 µM |

====

Recorded measurements of TGI, one per entry
Tested on: NCI-H226 lung
Experiment: NCI tumour cell line growth inhibition, 48 h

| compound | TGI |
| --- | --- |
| COC1=C2CC(C)CC(OC)C(OC(=O)CCCN)C(C)/C=C(\C)C(OC(N)=O)C(OC)/C=C\C=C(/C)C(=O)NC(=CC1=O)C2=O (stereo not given) | 33.3 µM |
| O=c1[nH]c2nc[nH]c2c(=O)n1C1CCCCC1 | > 100 µM |
| c1ccc2cc3c(cc2c1)OP1(Oc2cccc4cccnc24)(O3)Oc2cc3ccccc3cc2O1 | 44.5 µM |
| COc1ccc(S(=O)(=O)N2CCNCC2)cc1OC | > 100 µM |
| COc1ccc(-c2[nH]c3ccccc3c2/C=C(\C#N)S(=O)(=O)c2ccccc2)cc1 | > 66.4 µM |
| Cc1ccc(NC(=O)/C(C#N)=C/c2ccccc2)c(C)c1 | > 100 µM |
| CN1CCC/C1=C1/C(=O)N(c2ccccc2)N=C1c1ccc[nH]1 | > 100 µM |
| CN1C(=NCCO)NS(=O)(=O)c2ccccc21 | > 100 µM |
| O=C1CSC(c2ccccc2O)N1c1ccc(Oc2ccc(Cl)cc2)c(Cl)c1 (stereo not given) | > 100 µM |
| O=C1/C(=C/c2cccs2)NC(=S)N1CN1CCCCC1 | > 100 µM |
| C=C1C(=O)O[C@H]2[C@H]1CC/C(COC(=O)NCc1c[nH]c3ccc(F)cc13)=C\CC[C@@]1(C)O[C@@H]21 | 3.3 µM |
| C[C@H]1CN(C2COC2)CCN1c1ccc(Nc2cc(-c3ccnc(N4CCn5c(cc6c5CC(C)(C)C6)C4=O)c3CO)cn(C)c2=O)nc1 | 46.5 µM |
| CCCCN(C)C(=O)C1=C(C)NC(C)=C(C(=O)N(C)CCCC)C1 | > 100 µM |
| CC(C)N(C(=O)C12C3C4C1C1C2C3C41C(=O)N(C(C)C)C(C)C)C(C)C (stereo not given) | > 50 µM |
| O=C(O)CC12CC3CC(CC(O)(C3)C1)C2 | > 100 µM |
| CCC(C)N1CN(c2ccccc2)C2(CCN(CCCSc3ccc(F)cc3)CC2)C1=O (stereo not given) | 17 µM |
| [Cl][Cu][Cl] | > 10 µM |
| O=[N+]([O-])C(=C/c1cccc2ccccc12)/C(=C\c1cccc2ccccc12)[N+](=O)[O-] | 13.7 µM |
| CCCC(=O)OCOC(=O)N(C)N=Nc1ccc(C(=O)OCC)cc1 | > 100 µM |
| O=c1ccc2ccccc2c2ccccc12 | 15.1 µM |
